pIC50 data for Glycogen synthase kinase-3 beta (Homo sapiens) follow.
Just the number, please; pIC50 means minus log10 of the concentration in mol/L.

Worked examples, 5 compounds total:
Cc1cc(C)c(C2=C(c3cn(CCCn4ccnc4)c4ccc(Br)cc34)C(=O)NC2=O)c(C)c1: 6.96
CC(C)(C)c1ccc(C2=C(c3cn(CCCn4ccnc4)c4ccc(Br)cc34)C(=O)NC2=O)cc1: 6.38
COc1ccc2c(c1)c(C1=C(c3ccc(F)cc3)C(=O)NC1=O)cn2CCCn1ccnc1: 6.82
O=C1NC(=O)C(c2cn(CCCn3ccnc3)c3ccc(Br)cc23)=C1c1cc(C(F)(F)F)cc(C(F)(F)F)c1: 6.23
O=C1NC(=O)C(c2cn(CCCn3ccnc3)c3ccc(Br)cc23)=C1c1cc(F)c(F)cc1F: 6.92

input: Would you please give the reported pIC50 of O=C1NC(=O)C(c2cn(CCCn3ccnc3)c3cc(Br)ccc23)=C1c1ccc2ccccc2c1 with Glycogen synthase kinase-3 beta (Homo sapiens)?
output: 7.00

input: Look up and report pIC50, with Glycogen synthase kinase-3 beta (Homo sapiens) as system, for Cc1ccc2c(C3=C(c4ccc5ccccc5c4)C(=O)NC3=O)cn(CCCn3ccnc3)c2c1
output: 6.85

input: State measured pIC50 of the compound COc1ccc2c(c1)c(C1=C(c3ccccc3OC)C(=O)NC1=O)cn2CCCn1ccnc1 with Glycogen synthase kinase-3 beta (Homo sapiens).
output: 4.70

input: Provide measured pIC50 on Glycogen synthase kinase-3 beta (Homo sapiens) for O=C1NC(=O)C(c2cn(CCCn3ccnc3)c3ccccc23)=C1c1c[nH]c2ccccc12 please.
output: 4.64

====

Target: Glycogen synthase kinase-3 beta (Homo sapiens, UniProt P49841)
Sequence (P49841 whole entry): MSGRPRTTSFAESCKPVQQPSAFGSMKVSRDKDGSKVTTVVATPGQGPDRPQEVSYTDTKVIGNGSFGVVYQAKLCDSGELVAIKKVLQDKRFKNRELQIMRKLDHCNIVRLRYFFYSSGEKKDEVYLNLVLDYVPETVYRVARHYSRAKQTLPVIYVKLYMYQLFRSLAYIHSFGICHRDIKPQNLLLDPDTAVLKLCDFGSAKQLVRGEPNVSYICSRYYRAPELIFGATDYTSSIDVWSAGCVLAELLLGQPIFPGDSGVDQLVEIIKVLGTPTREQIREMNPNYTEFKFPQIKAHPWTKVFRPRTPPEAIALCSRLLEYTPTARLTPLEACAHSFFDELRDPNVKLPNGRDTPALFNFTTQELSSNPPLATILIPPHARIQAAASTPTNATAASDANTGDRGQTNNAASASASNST
Strictly below 30 nM in IC50: Y. Otherwise: N.

Solved cases (4 shown):
O=C1NC(=O)C(c2cn(CCCn3ccnc3)c3ccccc23)=C1c1ccccc1[N+](=O)[O-]: N
COc1ccc2c(c1)c(C1=C(c3ccccc3[N+](=O)[O-])C(=O)NC1=O)cn2CCCn1ccnc1: N
O=C1NC(=O)C(c2cn(CCCn3ccnc3)c3ccccc23)=C1c1ccccc1: Y
O=C1NC(=O)C(c2cn(CCCn3ccnc3)c3ccc(Br)cc23)=C1c1ccccc1F: N

Please look at the following compound next.
input: Could you please tell me whether IC50 recorded for O=C1NC(=O)C(c2cn(CCCn3ccnc3)c3ccccc23)=C1c1ccc(F)cc1 is less than 30 nM?
output: N

====

Biological target: Glutaminyl-peptide cyclotransferase (Homo sapiens, UniProt Q16769)
Sequence (Q16769 whole entry): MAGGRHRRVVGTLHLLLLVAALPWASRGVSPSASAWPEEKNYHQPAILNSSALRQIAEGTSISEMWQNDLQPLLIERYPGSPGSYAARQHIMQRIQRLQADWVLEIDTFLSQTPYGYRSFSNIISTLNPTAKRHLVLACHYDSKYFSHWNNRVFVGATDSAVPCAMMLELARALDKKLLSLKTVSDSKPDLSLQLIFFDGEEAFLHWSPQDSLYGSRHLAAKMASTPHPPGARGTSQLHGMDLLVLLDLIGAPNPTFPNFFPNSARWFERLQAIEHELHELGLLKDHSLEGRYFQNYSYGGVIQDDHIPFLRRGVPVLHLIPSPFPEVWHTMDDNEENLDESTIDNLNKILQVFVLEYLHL
The reader will find reported pIC50 values listed item by item below.
Scale for pIC50: -log10 of concentration given in mol/L; no unit attached.

COc1ccc(C2=C(c3cn(CCCn4ccnc4)c4ccc(OC)cc34)C(=O)NC2=O)cc1: 5.23
O=C1NC(=O)C(c2cn(CCCn3ccnc3)c3cc(Br)ccc23)=C1c1ccc2ccccc2c1: 5.40
O=C1NC(=O)C(c2cn(CCCn3ccnc3)c3ccc(Br)cc23)=C1c1ccc2ccccc2c1: 5.53
COc1ccc(C2=C(c3cn(CCCn4ccnc4)c4cc(Br)ccc34)C(=O)NC2=O)cc1: 5.59

# context switch: different compound, same pIC50
input: # return pIC50 of COc1ccc(C2=C(c3cn(CCCn4ccnc4)c4ccc(C)cc34)C(=O)NC2=O)cc1 (system: Glutaminyl-peptide cyclotransferase (Homo sapiens, UniProt Q16769))
output: 5.21

Just for reference, ChEMBL document CHEMBL5321202 is where these values come from.
